- ASSAYED_SYSTEM: Gonadotropin-releasing hormone receptor (Homo sapiens, UniProt P30968)
- EXPERIMENT: Antagonism of GnRH response in HEK293 cells expressing human GnRH receptor
- Assay type: functional, cell-based
- CONDITION_DESCRIPTION: hek293
This section presents compounds with their documented IC50 values.
Give the value, in units of nM, as a plain number.

Short answer on Gonadotropin-releasing hormone receptor (Homo sapiens, UniProt P30968) for CC(=O)N[C@H](Cc1ccc2ccccc2c1)C(=O)N[C@H](Cc1ccc(Cl)cc1)C(=O)N[C@@H](Cc1cccnc1)C(=O)N[C@@H](CO)C(=O)N[C@@H](Cc1ccc(NC(=O)[C@@H]2CC(=O)NC(=O)N2)cc1)C(=O)N[C@@H](Cc1ccc(NC(N)=O)cc1)C(=O)N[C@@H](CC(C)C)C(=O)N[C@@H](CCNC(C(=O)O)C1CCCCC1)C(=O)N1CCC[C@H]1C(=O)N[C@H](C)C(N)=O (stereo not given in full) , IC50: 1.77

The value of IC50 recorded for `CC(=O)N[C@H](Cc1ccc2ccccc2c1)C(=O)N[C@H](Cc1ccc(Cl)cc1)C(=O)N[C@@H](Cc1cccnc1)C(=O)N[C@@H](CO)C(=O)N[C@@H](Cc1ccc(NC(=O)[C@@H]2CC(=O)NC(=O)N2)cc1)C(=O)N[C@@H](Cc1ccc(NC(N)=O)cc1)C(=O)N[C@@H](CC(C)C)C(=O)N[C@@H](CCCNC(=O)[C@H]1CC(=O)NC(=O)N1)C(=O)N1CCC[C@H]1C(=O)N[C@H](C)C(N)=O` when tested on Gonadotropin-releasing hormone receptor (Homo sapiens, UniProt P30968) reads 1.77

Entry `CC(=O)N[C@H](Cc1ccc2ccccc2c1)C(=O)N[C@H](Cc1ccc(Cl)cc1)C(=O)N[C@H](CCNCc1ccccn1)C(=O)N[C@@H](CO)C(=O)N[C@@H](Cc1ccc(NC(=O)[C@@H]2CC(=O)NC(=O)N2)cc1)C(=O)N[C@H](Cc1ccc(NC(N)=O)cc1)C(=O)N[C@@H](CC(C)C)C(=O)N[C@@H](CCCCNC(C)C)C(=O)N1CCC[C@H]1C(=O)N[C@H](C)C(N)=O` , Gonadotropin-releasing hormone receptor (Homo sapiens, UniProt P30968) data, IC50 value: 3.79

// returns IC50 for `CC(=O)N[C@H](Cc1ccc2ccccc2c1)C(=O)N[C@H](Cc1ccc(Cl)cc1)C(=O)N[C@H](Cc1cccnc1)C(=O)N[C@@H](CO)C(=O)N[C@@H](Cc1ccc(NC(=O)[C@@H]2CC(=O)NC(=O)N2)cc1)C(=O)N[C@H](Cc1ccc(NC(N)=O)cc1)C(=O)N[C@@H](CC(C)C)C(=O)N[C@@H](CN[C@H](C(=O)O)C1CCCCC1)C(=O)N1CCC[C@H]1C(=O)N[C@H](C)C(N)=O` with Gonadotropin-releasing hormone receptor (Homo sapiens, UniProt P30968); value = 2.01

`CC(=O)N[C@H](Cc1ccc2ccccc2c1)C(=O)N[C@H](Cc1ccc(Cl)cc1)C(=O)N[C@H](CN(Cc1ccccn1)Cc1ccccn1)C(=O)N[C@@H](CO)C(=O)N[C@@H](Cc1ccc(NC(=O)[C@@H]2CC(=O)NC(=O)N2)cc1)C(=O)N[C@H](Cc1ccc(NC(N)=O)cc1)C(=O)N[C@@H](CC(C)C)C(=O)N[C@@H](CCCCNC(C)C)C(=O)N1CCC[C@H]1C(=O)N[C@H](C)C(N)=O` on Gonadotropin-releasing hormone receptor (Homo sapiens, UniProt P30968) gives IC50 = 5.31

---

- ASSAYED_SYSTEM: Gonadotropin-releasing hormone receptor (Homo sapiens, UniProt P30968)
- Sequence (P30968 whole entry): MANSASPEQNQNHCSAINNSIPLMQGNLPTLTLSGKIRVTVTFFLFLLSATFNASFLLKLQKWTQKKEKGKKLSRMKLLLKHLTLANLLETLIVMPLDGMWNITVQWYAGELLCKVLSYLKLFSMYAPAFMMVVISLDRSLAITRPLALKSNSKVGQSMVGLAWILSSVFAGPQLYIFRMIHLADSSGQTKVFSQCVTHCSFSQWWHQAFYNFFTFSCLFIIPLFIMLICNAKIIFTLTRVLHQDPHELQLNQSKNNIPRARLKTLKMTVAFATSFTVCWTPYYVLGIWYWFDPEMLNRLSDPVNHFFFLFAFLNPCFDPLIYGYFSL
- EXPERIMENT: Antagonism of GnRH response in HEK293 cells expressing human GnRH receptor
- Format: functional, cell-based
Each entry below carries its recorded pIC50.
// scale note: pIC50 = -log10(conc_M); give the bare number

{"MOLECULE_SMILES": "CC(=O)N[C@H](Cc1ccc2ccccc2c1)C(=O)N[C@H](Cc1ccc(Cl)cc1)C(=O)N[C@H](Cc1cccnc1)C(=O)N[C@@H](CO)C(=O)N[C@@H](Cc1ccc(NC(=O)[C@@H]2CC(=O)NC(=O)N2)cc1)C(=O)N(C)[C@H](Cc1ccc(NC(N)=O)cc1)C(=O)N[C@@H](CC(C)C)C(=O)N[C@@H](CCCCNC(C)C)C(=O)N1CCC[C@H]1C(=O)N[C@H](C)C(N)=O", "ASSAYED_SYSTEM": "Gonadotropin-releasing hormone receptor (Homo sapiens, UniProt P30968)", "pIC50": 8.73}
{"MOLECULE_SMILES": "CC(=O)N[C@H](Cc1ccc2ccccc2c1)C(=O)N[C@H](Cc1ccc(Cl)cc1)C(=O)N[C@H](Cc1cccnc1)C(=O)N[C@@H](CO)C(=O)N[C@@H](Cc1ccc(NC(=O)[C@@H]2CC(=O)NC(=O)N2)cc1)C(=O)N[C@H](Cc1ccc(NC(N)=O)cc1)C(=O)N[C@@H](Cc1ccc(O)cc1)C(=O)N[C@@H](CCCCNC(C)C)C(=O)N1CCC[C@H]1C(=O)N[C@H](C)C(N)=O", "ASSAYED_SYSTEM": "Gonadotropin-releasing hormone receptor (Homo sapiens, UniProt P30968)", "pIC50": 8.55}

Now for a further compound.
With Gonadotropin-releasing hormone receptor (Homo sapiens, UniProt P30968) as the test system, `CNC(=O)C[C@H](NC(=O)[C@@H](Cc1ccc(NC(N)=O)cc1)NC(=O)[C@H](Cc1ccc(NC(=O)[C@@H]2CC(=O)NC(=O)N2)cc1)NC(=O)[C@H](CO)NC(=O)[C@@H](Cc1cccnc1)NC(=O)[C@@H](Cc1ccc(Cl)cc1)NC(=O)[C@@H](Cc1ccc2ccccc2c1)NC(C)=O)C(=O)N[C@@H](CCCCNC(C)C)C(=O)N1CCC[C@H]1C(=O)N[C@H](C)C(N)=O` showed pIC50 of 7.59

---

- ASSAYED_SYSTEM: Gonadotropin-releasing hormone receptor (Homo sapiens, UniProt P30968)
- EXPERIMENT: Antagonism of GnRH response in HEK293 cells expressing human GnRH receptor
- Format: functional, cell-based
Measured IC50 by item
Unit nM implied. Number only.

Below, 2 compounds whose answers are already recorded.
{"MOLECULE_SMILES": "CC(=O)N[C@H](Cc1ccc2ccccc2c1)C(=O)N[C@H](Cc1ccc(Cl)cc1)C(=O)N[C@H](Cc1cccnc1)C(=O)N[C@@H](CO)C(=O)N[C@@H](Cc1ccc(NC(=O)[C@@H]2CC(=O)NC(=O)N2)cc1)C(=O)N[C@H](Cc1ccc(NC(N)=O)cc1)C(=O)N[C@@H](CC(C)C)C(=O)N[C@@H](CCCNC(=O)CNC(C)C)C(=O)N1CCC[C@H]1C(=O)N[C@H](C)C(N)=O", "QUANTITY_MEASURED": "IC50", "VALUE_MEASURED": 1.38}
{"MOLECULE_SMILES": "CC(=O)N[C@H](Cc1ccc2ccccc2c1)C(=O)N[C@H](Cc1ccc(Cl)cc1)C(=O)N[C@H](Cc1cccnc1)C(=O)N[C@@H](CO)C(=O)N[C@@H](Cc1ccc(NC(=O)[C@@H]2CC(=O)NC(=O)N2)cc1)C(=O)N[C@H](Cc1ccc(NC(N)=O)cc1)C(=O)N[C@@H](CC(N)=O)C(=O)N[C@@H](CCCCNC(C)C)C(=O)N1CCC[C@H]1C(=O)N[C@H](C)C(N)=O", "QUANTITY_MEASURED": "IC50", "VALUE_MEASURED": 9.18}

Now let's try a different one.
For `CC(=O)N[C@H](Cc1ccc2ccccc2c1)C(=O)N[C@H](Cc1ccc(Cl)cc1)C(=O)N[C@H](Cc1cccnc1)C(=O)N[C@@H](CO)C(=O)N[C@@H](Cc1ccc(NC(=O)[C@@H]2CC(=O)NC(=O)N2)cc1)C(=O)N[C@H](Cc1ccc(NC(N)=O)cc1)C(=O)N[C@@H](CC(C)C)C(=O)N[C@@H](CCCNC(C)C)C(=O)N1CCC[C@H]1C(=O)N[C@H](C)C(N)=O` the compound record lists IC50 as 1.72

---

- ASSAYED_SYSTEM: Gonadotropin-releasing hormone receptor (Homo sapiens, UniProt P30968)
- Sequence (P30968 whole entry): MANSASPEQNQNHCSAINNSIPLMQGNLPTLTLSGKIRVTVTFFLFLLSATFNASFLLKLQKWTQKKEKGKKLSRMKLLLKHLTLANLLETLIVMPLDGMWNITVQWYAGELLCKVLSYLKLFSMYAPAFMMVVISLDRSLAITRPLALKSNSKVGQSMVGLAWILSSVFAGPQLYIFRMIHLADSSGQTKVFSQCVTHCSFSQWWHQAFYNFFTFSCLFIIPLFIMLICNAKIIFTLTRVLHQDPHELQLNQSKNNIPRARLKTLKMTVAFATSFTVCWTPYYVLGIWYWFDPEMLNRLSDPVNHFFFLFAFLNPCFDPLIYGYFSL
- EXPERIMENT: Antagonism of GnRH response in HEK293 cells expressing human GnRH receptor
- Format: functional, cell-based
QUANTITY_MEASURED: pIC50
Keep it numeric: pIC50 is minus log10 of the concentration in mol/L.

Field pIC50 (entry `CC(=O)N[C@H](Cc1ccc2ccccc2c1)C(=O)N[C@H](Cc1ccc(Cl)cc1)C(=O)N[C@H](CNCc1ccccn1)C(=O)N[C@@H](CO)C(=O)N[C@@H](Cc1ccc(NC(=O)[C@@H]2CC(=O)NC(=O)N2)cc1)C(=O)N[C@H](Cc1ccc(NC(N)=O)cc1)C(=O)N[C@@H](CC(C)C)C(=O)N[C@@H](CCCCNC(C)C)C(=O)N1CCC[C@H]1C(=O)N[C@H](C)C(N)=O` ) reads 8.57

Each recorded value in this set is attributed to ChEMBL document CHEMBL1140331.
